The reported numbers originate from patent US8722887B2.

molecular target: 5-HT6 receptor (Homo sapiens); assay: In vitro affinity for human 5-HT6 receptors, [3H]-LSD binding in CHO cell membranes; set-up: host or cells: CHO/Gα16/mtAEQ/h5HT6-A1 (CHO AequoScreen recombinant cell line); details: 5-HT6 pKi
endpoint-name: Ki (nM)
Give the quantity in nM, number only.

[in] For CCN/C(=N\S(=O)(=O)c1cccc(Cl)c1)N1CCC(C)=N1 , write its Ki.
[out] 200

###

target: 5-HT6 receptor (Homo sapiens, UniProt P50406); test: In vitro functional activity (antagonism) on human 5-HT6 receptors, CHO-human-5HT6-Aequorin assay; format: cell-based; design: host or cells: CHO/Gα16/mtAEQ/h5HT6-A1 (CHO AequoScreen recombinant cell line); settings: antagonism of 10^-8 M α-methylserotonin induced luminescence, CHO-human-5HT6-Aequorin cells; read-out: 5-HT6 pA2 (converted)
Sequence (P50406 whole entry): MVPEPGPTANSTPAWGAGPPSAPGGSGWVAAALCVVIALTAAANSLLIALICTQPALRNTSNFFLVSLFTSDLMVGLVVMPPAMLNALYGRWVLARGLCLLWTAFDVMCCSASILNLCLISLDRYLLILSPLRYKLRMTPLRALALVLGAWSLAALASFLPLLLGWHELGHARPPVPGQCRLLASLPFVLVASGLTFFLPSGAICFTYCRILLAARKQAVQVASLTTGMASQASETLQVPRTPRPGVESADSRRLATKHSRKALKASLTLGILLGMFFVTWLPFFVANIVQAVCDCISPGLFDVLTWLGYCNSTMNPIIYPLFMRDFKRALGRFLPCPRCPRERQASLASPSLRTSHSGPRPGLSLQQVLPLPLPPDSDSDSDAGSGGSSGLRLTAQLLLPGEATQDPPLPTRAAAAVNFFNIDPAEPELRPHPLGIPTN
Attribute: Kb
Give the quantity in nM, number only.

[in] For CCN/C(=N\S(=O)(=O)c1ccccc1Cl)N1CC(CC)C=N1 (centres unmarked) , write its Kb.
[out] 3.16

[in] For CCN/C(=N\S(=O)(=O)c1cccc(Cl)c1)N1N=C(C(C)C)CC1c1ccccc1 (centres unmarked) , write its Kb.
[out] 501

[in] For CCN/C(=N\S(=O)(=O)/C=C/c1ccccc1)N1CC(CC)C=N1 (centres unmarked) , write its Kb.
[out] 63.1

[in] For CCN/C(=N\S(=O)(=O)c1cccc(Cl)c1)N1CC(C)(C)C=N1 , write its Kb.
[out] 12.6

[in] For CCN/C(=N\S(=O)(=O)c1c(Cl)nc2sccn12)N1CC2(C=N1)CCOCC2 , write its Kb.
[out] 12.6

###

biological target: UniProt P50406; test: In vitro affinity for human 5-HT6 receptors, [3H]-LSD binding in CHO cell membranes; set-up: host or cells: CHO/Gα16/mtAEQ/h5HT6-A1 (CHO AequoScreen recombinant cell line); settings: [3H]-LSD 5.0 nM, membranes of CHO cells transfected with human 5-HT6; read-out: 5-HT6 pKi (converted)
Attribute: Ki
Give the quantity in nM, number only.

Some compounds with recorded Ki:
INSERT INTO assay_data (compound, endpoint_result) VALUES
  ('CCN/C(=N\S(=O)(=O)c1cccc(Cl)c1)N1N=CC(CC)C1c1ccccc1 (stereo not shown) [compound 153]', 158),
  ('CC1=NN(/C(N)=N/S(=O)(=O)c2cccc(Cl)c2)CC1c1ccccc1 (stereo not shown)', 158),
  ('CCN/C(=N\S(=O)(=O)c1cccc(Cl)c1)N1N=CC(CC)C1c1ccccc1 (single isomer, unassigned) [trans-(−)-153]', 398);

Turning to the following compound.
[in] For CCN/C(=N\S(=O)(=O)c1cccc(Cl)c1)N1CCC=N1 , write its Ki.
[out] 20

###

target: 5-HT6 receptor (Homo sapiens); assay: In vitro functional activity (antagonism) on human 5-HT6 receptors, CHO-human-5HT6-Aequorin assay; format: cell-based; parameters: host or cells: CHO/Gα16/mtAEQ/h5HT6-A1 (CHO AequoScreen recombinant cell line); conditions: antagonism of 10^-8 M α-methylserotonin induced luminescence, CHO-human-5HT6-Aequorin cells
endpoint-name: 5-HT6 pA2
// print number alone

Some compounds with recorded 5-HT6 pA2:
INSERT INTO measurements (compound, endpoint_name, endpoint_result) VALUES
  ('CCN/C(=N\S(=O)(=O)c1cccc(Cl)c1)N1N=CCC1c1ccco1 (stereo not shown)', '5-HT6 pA2', 8.1),
  ('CCN/C(=N\S(=O)(=O)c1cccc(Cl)c1)N1CCC(C)=N1', '5-HT6 pA2', 6.9),
  ('CCN/C(=N\S(=O)(=O)c1cccc(Cl)c1)N1N=CCC1c1ccncc1 (stereo not shown)', '5-HT6 pA2', 6.9);

[in] For CCN/C(=N\S(=O)(=O)c1cccc(Cl)c1)N1CCC=N1 , write its 5-HT6 pA2.
[out] 7.1

###

target: 5-HT6 receptor (Homo sapiens, UniProt P50406); experiment: In vitro affinity for human 5-HT6 receptors, [3H]-LSD binding in CHO cell membranes; set-up: host or cells: CHO/Gα16/mtAEQ/h5HT6-A1 (CHO AequoScreen recombinant cell line); conditions: [3H]-LSD 5.0 nM, membranes of CHO cells transfected with human 5-HT6; read-out: 5-HT6 pKi (converted)
# note: exactly 80 nM is not below, so it is rule not met; use rule met for Ki strictly under it

Worked examples follow.
INSERT INTO measurements (compound, assigned_class) VALUES
  ('CCN/C(=N\S(=O)(=O)c1cccc(Cl)c1)N1CC(CCC(F)(F)F)(CCC(F)(F)F)C=N1', 'rule not met'),
  ('CCN/C(=N\S(=O)(=O)c1cccc(Cl)c1)N1N=CCC1c1ccsc1 (centres unmarked)', 'rule met'),
  ('CCN/C(=N\S(=O)(=O)c1cccc(Cl)c1)N1CC(C)(C)C=N1', 'rule met');

[in] Ki strictly < 80 nM for this compound? CCN/C(=N\S(=O)(=O)c1c(Cl)nc2sccn12)N1CC2(C=N1)CCOCC2
[out] rule met

[in] Ki strictly < 80 nM for this compound? CCN/C(=N\S(=O)(=O)c1ccccc1Cl)N1CC(CC)C=N1 (centres unmarked)
[out] rule met

[in] Ki strictly < 80 nM for this compound? CCN/C(=N\S(=O)(=O)c1cccc(Cl)c1)N1N=CCC1c1cccs1 (centres unmarked)
[out] rule met

[in] Ki strictly < 80 nM for this compound? CCN/C(=N\S(=O)(=O)c1cccc(Cl)c1)N1N=CCC1c1ccco1 (centres unmarked)
[out] rule met

[in] Ki strictly < 80 nM for this compound? N/C(=N\S(=O)(=O)c1c(Cl)nc2sccn12)N1CC2(C=N1)CCOCC2
[out] rule met

[in] Ki strictly < 80 nM for this compound? CCN/C(=N\S(=O)(=O)c1ccc(Cl)s1)N1CC2(C=N1)CCOCC2
[out] rule met

[in] Ki strictly < 80 nM for this compound? CCN/C(=N\S(=O)(=O)c1cccc(Cl)c1)N1CC(c2ccccc2)C(C)=N1 (centres unmarked)
[out] rule not met

[in] Ki strictly < 80 nM for this compound? CCN/C(=N\S(=O)(=O)c1cccc(Cl)c1)N1N=CCC1c1ccccn1 (centres unmarked)
[out] rule not met

[in] Ki strictly < 80 nM for this compound? CCC1C=NN(/C(=N/S(=O)(=O)c2ccccc2Cl)N2CCNCC2)C1 (centres unmarked)
[out] rule not met

[in] Ki strictly < 80 nM for this compound? CN/C(=N\S(=O)(=O)c1ccc(Cl)s1)N1CC2(C=N1)CCOCC2
[out] rule not met

[in] Ki strictly < 80 nM for this compound? CCN/C(=N\S(=O)(=O)c1cccc(Cl)c1)N1N=CC(CC)C1c1ccccc1 (single isomer, unassigned) [cis(−)-153]
[out] rule met

[in] Ki strictly < 80 nM for this compound? CCN/C(=N\S(=O)(=O)c1ccc(N(C)C)cc1)N1CC(CC)C=N1 (centres unmarked)
[out] rule not met

[in] Ki strictly < 80 nM for this compound? CCN/C(=N\S(=O)(=O)c1ccccc1Cl)N1CCC(c2ccccc2)=N1
[out] rule not met

[in] Ki strictly < 80 nM for this compound? CCN/C(=N\S(=O)(=O)c1cccc(Cl)c1)N1N=CCC1c1cccnc1 (centres unmarked)
[out] rule met

[in] Ki strictly < 80 nM for this compound? CCN/C(=N\S(=O)(=O)c1cc2ccccc2s1)N1CC(CC)C=N1 (centres unmarked)
[out] rule met

[in] Ki strictly < 80 nM for this compound? CCN/C(=N\S(=O)(=O)c1cccc(Cl)c1)N1N=CC(CC)C1c1ccccc1 (single isomer, unassigned) [trans-(+)-153]
[out] rule not met
